target: LHRH rat pituitary receptor (Rattus norvegicus, UniProt P30969); construct: from tissue; host or cells: rat pituitary; assay: LHRH rat pituitary receptor binding (pKI); details: negative logarithm of the equilibrium dissociation constants, Table 1, read-out: receptor binding affinity (pKI) (converted)
Sequence (P30969 whole entry): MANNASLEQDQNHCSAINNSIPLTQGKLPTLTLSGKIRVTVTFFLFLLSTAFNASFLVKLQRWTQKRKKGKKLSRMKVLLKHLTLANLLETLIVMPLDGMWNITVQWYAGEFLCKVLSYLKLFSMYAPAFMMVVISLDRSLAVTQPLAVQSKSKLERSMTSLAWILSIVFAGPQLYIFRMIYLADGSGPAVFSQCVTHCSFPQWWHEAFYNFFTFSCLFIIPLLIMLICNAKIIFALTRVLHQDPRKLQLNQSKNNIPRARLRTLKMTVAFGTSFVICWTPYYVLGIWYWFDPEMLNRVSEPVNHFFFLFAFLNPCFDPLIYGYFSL
TEST READOUT: Ki

Can you share its Ki? I mean this compound: "CC[C@H]1OC(=O)[C@H](C)[C@@H](O[C@H]2C[C@@](C)(OC)[C@@H](O)[C@H](C)O2)[C@H](C)[C@@H](O[C@@H]2O[C@H](C)C[C@H](N(C)Cc3ccco3)[C@H]2O)[C@](C)(OC)C[C@@H](C)C(=O)[C@H](C)[C@H]2N(CCc3ccc(F)c(Cl)c3)C(=O)O[C@]12C"
3.55 nM

Can you share its Ki? I mean this compound: "CCCN(C)[C@H]1C[C@@H](C)O[C@@H](O[C@@H]2[C@@H](C)[C@H](O[C@H]3C[C@@](C)(OC)[C@@H](O)[C@H](C)O3)[C@@H](C)C(=O)O[C@H](CC)[C@@]3(C)OC(=O)N(CCc4ccc(OC)cc4)[C@@H]3[C@@H](C)C(=O)[C@H](C)C[C@@]2(C)OC)[C@@H]1O"
5.13 nM

Can you share its Ki? I mean this compound: CC[C@H]1OC(=O)[C@H](C)[C@@H](O[C@H]2C[C@@](C)(OC)[C@@H](O)[C@H](C)O2)[C@H](C)[C@@H](O[C@@H]2O[C@H](C)C[C@H](N(C)C(C)CCc3ccc(O)cc3)[C@H]2O)[C@](C)(OC)C[C@@H](C)C(=O)[C@H](C)[C@H]2N(CCc3ccc(Cl)c(Cl)c3)C(=O)O[C@]12C (stereo partly drawn)
5.89 nM
